Tested on: Hepatitis C virus NS3 helicase
Assay Remarks: blockers of NS3h binding to ssDNA – biochemical, fluorescence polarization, LOPAC1280 library, primary screen (AID 687035)
Experimental Conditions: Purified HCV NS3 helicase, Cy5-dT15 ssDNA binding fluorescence polarization; stronger effect = higher value; concentration not given here
Measurement Label: inhibition (%)
I only need the number, in %, no unit after it.

// below: answered compounds
Nc1nc2c(ncn2[C@@H]2O[C@H](CO)[C@@H](O)[C@@H]2O)c(=O)[nH]1 :: -2
N=C(N)c1ccc(N)cc1 :: -2
N[C@H](C(=O)O)[C@H](O)C(=O)O :: -1
CNCC[C@H](Oc1ccc(C(F)(F)F)cc1)c1ccccc1 :: -2
COc1cc(CC(=O)O)ccc1O :: 1

Consider OCC1O[C@H]([S-])[C@@H](O)C(O)[C@@H]1O.[Au+] (stereo partly specified) . Its measured inhibition is 36

NCCS(=O)O has a reported inhibition of -3

Record CC(=O)/C=C1\C(=O)N(C)c2ccccc21 . Reported inhibition: -2

Consider CCCCCCCCCCCCCCSCC(=O)O . Its measured inhibition is -2

====

Assay Remarks: viability loss with induced miR-34 in A549 – imaging, A549 dox-inducible miR-34, nuclei and caspase counts, primary screen (AID 1347080)
Experimental Conditions: A549 miR-34 inducible, Hoechst nuclei count, 48 h; measured here: relative caspase fold change +Dox/-Dox
Measurement Label: fold change

Some compounds with recorded fold change:
CC(=O)N(CC(C)C(=O)O)c1c(I)cc(I)c(N)c1I (centres undefined) :: 1.42
CN(C)CC=CC(=O)Nc1cc2c(Nc3ccc(F)c(Cl)c3)ncnc2cc1OC1CCOC1 (centres undefined) :: 1.69
COc1cc(N2CCN(Cc3ccccc3F)C(=O)C2)ncn1 :: 1.97
CC[C@H]1OC(=O)[C@H](C)C(O[C@H]2C[C@@](C)(OC)[C@@H](O)[C@H](C)O2)[C@H](C)[C@@H](OC2O[C@H](C)C[C@H](N(C)C)[C@H]2O)[C@](C)(O)C[C@@H](C)CN(C)[C@H](C)[C@@H](O)[C@]1(C)O (some centres undefined) :: 1.99
Cn1nccc1-c1cc(C(=O)NCc2ccc(S(C)(=O)=O)cn2)c(=O)n(-c2cccc(C(F)(F)F)c2)c1 :: 0.538
C[C@]1(C(=O)Nc2ccc(F)nc2)CCCN1c1nc(Nc2cc(C3CC3)[nH]n2)c2cccn2n1 :: 0.776

Record summary for O=C(O)[C@H]1NCCC[C@H]1C(=O)O : reported fold change = 2.09

GET /value?item= C[C@H](C(=O)O)c1cccc(C(=O)c2ccccc2)c1 &field=fold change returns 1.59

Per the records, this compound ( NC(C(=O)NC1C(=O)N2C(C(=O)O)=C(CSc3cn[nH]n3)CSC12)c1ccc(O)cc1 (centres undefined) (tested in a mixture with another compound) ) has fold change equal to 1.68

====

Assay Remarks: MELAS cybrid and Rieske KO viability enhancers – cell-based, MELAS cybrids, Rieske KO mouse fibroblasts, CellTiter-Glo, primary screen (AID 1508586);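 note: z relative to plate mean and SD of compound and empty wells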
Experimental Conditions: Rieske KO mouse fibroblast survival, low glucose, CellTiter-Glo 72 h
In plain terms, low z-score, meaning strictly below -0.5, gives rule met, and everything else gives rule not met.

Worked cases, answers included:
CN1CC(=O)N2CCN(C(=O)NCc3ccccc3)C[C@@H]2C1=O :: rule not met
CC(=O)OC1C[C@@H]2CC[C@@H]3[C@@H](CC[C@]4(C)C(OC(C)=O)C([N+]5(C)CCCCC5)C[C@@H]34)[C@@]2(C)CC1N1CCCCC1 (stereo partly specified) :: rule met

Please determine if COc1cc(C(=O)NC2CCN(C)CC2)ccc1Nc1ncc2c(n1)N(C1CCCC1)CC(F)(F)C(=O)N2C is below -0.5 in terms of z-score.
rule met

Lab log: compare recorded z-score with -0.5; is it strictly lower for O=C1N[C@@H](Cc2c[nH]c3ccccc23)C(=O)N2C[C@@H](NCc3ccccc3Cl)C[C@@H]12 ?
rule not met

Given the entry O=C(O)c1ccc2ccccc2n1 , would its reported z-score be below -0.5?
rule met

For this compound, is z-score lower than -0.5? CCC1OC(=O)C(C)C(OC2C[C@@](C)(OC)C(O)C(C)O2)C(C)C(OC2OC(C)CC(N(C)C)C2O)[C@](C)(O)CC(C)CN(C)C(C)C(O)[C@]1(C)O (stereo partly specified)
rule not met

Please determine if COc1c(C)c2c(c(O)c1CC=C(C)CCC(=O)OCCN1CCOCC1)C(=O)OC2 is below -0.5 in terms of z-score.
rule met

# credit: PubChem BioAssay
